# Test system: M. elsdenii
# Assay type: cell-based
# condition description: strain B159; Table IV (separate study)
measured endpoint: Minimal Inhibitory Concentration (bioactivity data)

C=C(NC(=O)c1ccc2c(n1)-c1coc(n1)C(=C)NC(=O)C(=C)NC(=O)c1nc(oc1C)C(=CC)NC(=O)c1csc(n1)C(OC)NC(=O)c1nc(oc1C)C(=CC(C)O)NC(=O)C(C(C)O)NC(=O)c1csc-2n1)C(N)=O (stereo not drawn) [Antibiotic 10381y]
> 100
C=C(NC(=O)C(=C)NC(=O)C(=C)NC(=O)c1ccc2c(n1)-c1coc(n1)C(=C)NC(=O)C(=C)NC(=O)c1nc(oc1C)C(=CC)NC(=O)c1csc(n1)CNC(=O)c1nc(oc1C)C(=CC(C)O)NC(=O)C(C(C)O)NC(=O)c1csc-2n1)C(N)=O (stereo not drawn) [Antibiotic 10381pre-b]
> 100
C=C(NC(=O)C(=C)NC(=O)C(=C)NC(=O)c1ccc2c(n1)-c1nc(oc1C)C(C)NC(=O)c1csc(n1)C(C)NC(=O)c1nc(oc1C)CNC(=O)C(C(C)C)NC(=O)c1csc-2n1)C(N)=O (stereo not drawn) [Antibiotic 10381x]
> 100
C=C(NC(=O)c1ccc2c(n1)-c1nc(oc1C)C(C)NC(=O)c1csc(n1)C(C)NC(=O)c1nc(oc1C)CNC(=O)C(C(C)C)NC(=O)c1csc-2n1)C(N)=O (stereo not drawn) [Antibiotic 10381w]
> 100
C=C1NC(=O)c2nc(oc2C)C(=CC)NC(=O)c2csc(n2)C(OC)NC(=O)c2nc(oc2C)C(=CC(C)O)NC(=O)C(C(C)O)NC(=O)c2csc(n2)-c2ccc(C(N)=O)nc2-c2coc(n2)C(=C)NC1=O (stereo not drawn) [Antibiotic 10381v]
> 100

stdin: Lab note: M. elsdenii assay, enter Minimal Inhibitory Concentration (bioactivity data) for C=C(NC(=O)C(=C)NC(=O)C(=C)NC(=O)c1ccc2c(n1)-c1coc(n1)C(=C)NC(=O)C(=C)NC(=O)c1nc(oc1C)/C(=C/C)NC(=O)c1csc(n1)C(OC)NC(=O)c1nc(oc1C)/C(=C/C(C)O)NC(=O)[C@H]([C@@H](C)O)NC(=O)c1csc-2n1)C(N)=O (stereo partly drawn) [Antibiotic 10381b, sulfomycin I, reference compound] here
stdout: > 100

---

# Test system: E. lentum
# Type: cell-based
# condition description: strain L-34; Table IV (separate study)
measured endpoint: Minimal Inhibitory Concentration (bioactivity data)

Field: example entries. Status: answers known.
C=C1NC(=O)c2nc(oc2C)C(=CC)NC(=O)c2csc(n2)C(OC)NC(=O)c2nc(oc2C)C(=CC(C)O)NC(=O)C(C(C)O)NC(=O)c2csc(n2)-c2ccc(C(N)=O)nc2-c2coc(n2)C(=C)NC1=O (stereo not drawn) [Antibiotic 10381v]
25.0
C=C(NC(=O)C(=C)NC(=O)C(=C)NC(=O)c1ccc2c(n1)-c1coc(n1)C(=C)NC(=O)C(=C)NC(=O)c1nc(oc1C)/C(=C/C)NC(=O)c1csc(n1)C(OC)NC(=O)c1nc(oc1C)/C(=C/C(C)O)NC(=O)[C@H]([C@@H](C)O)NC(=O)c1csc-2n1)C(N)=O (stereo partly drawn) [Antibiotic 10381b, sulfomycin I, reference compound]
< 0.2

stdin: Specify measured Minimal Inhibitory Concentration (bioactivity data) for C=C(NC(=O)C(=C)NC(=O)C(=C)NC(=O)c1ccc2c(n1)-c1coc(n1)C(=C)NC(=O)C(=C)NC(=O)c1nc(oc1C)C(=CC)NC(=O)c1csc(n1)CNC(=O)c1nc(oc1C)C(=CC(C)O)NC(=O)C(C(C)O)NC(=O)c1csc-2n1)C(N)=O (stereo not drawn) [Antibiotic 10381pre-b] .
stdout: < 0.2

stdin: Specify measured Minimal Inhibitory Concentration (bioactivity data) for C=C(NC(=O)C(=C)NC(=O)C(=C)NC(=O)c1ccc2c(n1)-c1nc(oc1C)C(C)NC(=O)c1csc(n1)C(C)NC(=O)c1nc(oc1C)CNC(=O)C(C(C)C)NC(=O)c1csc-2n1)C(N)=O (stereo not drawn) [Antibiotic 10381x] .
stdout: < 0.2

stdin: Specify measured Minimal Inhibitory Concentration (bioactivity data) for C=C(NC(=O)c1ccc2c(n1)-c1coc(n1)C(=C)NC(=O)C(=C)NC(=O)c1nc(oc1C)C(=CC)NC(=O)c1csc(n1)C(OC)NC(=O)c1nc(oc1C)C(=CC(C)O)NC(=O)C(C(C)O)NC(=O)c1csc-2n1)C(N)=O (stereo not drawn) [Antibiotic 10381y] .
stdout: < 0.2

stdin: Specify measured Minimal Inhibitory Concentration (bioactivity data) for C=C(NC(=O)c1ccc2c(n1)-c1nc(oc1C)C(C)NC(=O)c1csc(n1)C(C)NC(=O)c1nc(oc1C)CNC(=O)C(C(C)C)NC(=O)c1csc-2n1)C(N)=O (stereo not drawn) [Antibiotic 10381w] .
stdout: 25.0
